For each of the compounds below, state its TGI.
- System: HCT-116 colon
- experimental_protocol: NCI tumour cell line growth inhibition, 48 h

Quick one: TGI for `COc1ccc(C2=NNC(=O)c3ccccc3N2c2nc(-c3cccs3)nc3cc(OC)c(OC)cc23)cc1` ? > 100 µM

I have this compound here, `CCC(=O)Nc1nnc(Cc2ccc(OC)c(OC)c2)s1` , and I need its recorded TGI. > 100 µM

Bench note: what TGI did `CCCCCCCCCCCCCS(=O)(=O)NCC(N)=O` show? > 100 µM

Quick check: TGI of CC12CCc3ccccc3C1=NNC(=O)C2 (stereo not given) ? > 100 µM

Which measured TGI value corresponds to `COc1ccc2c(c1)[n+]([O-])c(-c1ccccc1Cl)c(N)[n+]2[O-]` ? > 100 µM

Fill in the blank: the reported TGI of `COC(=O)CC1=C(C)/C(=C/c2[nH]c(-c3ccc[nH]3)cc2OC)N=C1C` is ____. 1.16 µM

Request the reported TGI associated with C=C1CCOC2(C(O)C(C)(O)CO)NC(=O)C1(O)NC2=O (stereo not given) > 100 µM

GET /values?readout=TGI&item= `COc1cccc(OC)c1NC(=O)C(=O)Nn1c(NNC(=O)c2ccncc2)nc2ccccc2c1=O` > 100 µM

Request the reported TGI associated with `O=S(=O)(c1ccccc1)c1ccc(-c2nc(-c3ccc4c(c3)Sc3ccccc3S4)cs2)cc1` > 100 µM

Tell me the measured TGI of `O=C(NCCNCCO)c1ccc(Nc2nc3ccccc3c3occc23)cc1` , please. 23.3 µM

###

Record form. Attribute: TGI. Fill in for each entry.
- Test system: SF-268 CNS
- experimental_protocol: NCI tumour cell line growth inhibition, 48 h

Sample `CN(C)N=Nc1ccc(S(N)(=O)=O)cc1` — what was its TGI? > 100 µM

Recorded TGI of N#CC1=C(N)OC2=C(CCOc3c2ccc2ccccc32)C1c1ccc(Br)cc1 (stereo not given) , please. > 100 µM

Dear colleague, I am looking for the recorded TGI of the following molecule: `CSc1nc(SC)c2c(C)cn(COCCOC(=O)c3ccccc3)c2n1` > 100 µM

For the molecule CC(C)(C)[Si](C)(C)OC1[C@@H](COC(=O)NC(=O)CCl)O[C@@H](n2cnc3c(N)ncnc32)[C@H]1O[Si](C)(C)C(C)(C)C (stereo not given in full) , what TGI is on record? 5.23 µM

Can you look up the measured TGI of `N=C(CC(=O)Nc1ccccn1)c1ccccc1` for me? > 100 µM

Which TGI reading was recorded for the molecule CCOC(=O)N1CCC2(CC1)C[C@@](C(C)=O)(c1ccccc1)C(C)O2 (stereo not given in full) ? > 100 µM

What does the data say about its TGI? Entry: `Cc1ccc(Nc2nc(-c3ccc(-c4ccc([N+](=O)[O-])cc4)o3)cs2)cc1` > 100 µM

Record request: TGI value, item CC(NNC(=O)c1ccncc1)c1cccc(C(F)(F)F)c1 (stereo not given) > 100 µM

Data request, read-out TGI, for CC(C)(C)OC(=O)N1N=CCC1c1ccccc1 (stereo not given) > 100 µM

What does the record list as TGI for CC1=C(C(=O)Nc2ccc(Cl)c(Cl)c2)C(c2cccc(Cl)c2)NC(=S)N1 (stereo not given) ? 41.8 µM

Dear colleague, I am looking for the recorded TGI of the following molecule: CCN1C(=O)N(CC)C2C1N=C(SC)N2/N=C/C=C/c1ccccc1OC (stereo not given) > 57.7 µM

Reported TGI for `C/C(=N\NC(N)=S)c1nc2ncccc2[nH]1` : what is it? > 100 µM

Bench note: what TGI did `O=C(O)c1nn(-c2ccccc2)nc1-c1nn(-c2ccccc2)nc1C(=O)O` show? > 100 µM

What does the record list as TGI for `COc1ccc2c(c1)/C(=N/OC(C)=O)c1c-2c(OC)nc2ccccc12` ? > 100 µM

Which TGI value is on record for `CNC(=O)CNC(=O)N(C[C@@H]1CCCN1C(=O)[C@H](CC(C)C)NC(=O)OC(C)(C)C)C(C)C` ? > 100 µM

Which TGI is listed for COc1ccc(C(=O)C(C(=O)C(=O)NCCCNC(=O)C(=O)C(C(=O)c2ccc(OC)cc2)c2ccc(OC)cc2)c2ccc(OC)cc2)cc1 (stereo not given) ? > 100 µM

Would you mind telling me what TGI value was observed for `COC(=O)c1cc(-c2ccc(S(C)(=O)=O)cc2)[nH]c1N/N=C/c1c(Cl)cccc1Cl` ? > 56.4 µM

Which TGI is listed for `O=C1[C@@H]2C(c3ccccc3[N+](=O)[O-])=NO[C@@H]2C(=O)N1c1ccc(Cc2ccc(N3C(=O)[C@H]4C(c5ccccc5[N+](=O)[O-])=NO[C@H]4C3=O)cc2)cc1` ? > 100 µM

If you can, please state the reported TGI value of CCCCCCCCCCCCOC1C(COCCN2CCCCC2)OC2OC(C)(C)OC21 (stereo not given) . 6.44 µM

Give the measured TGI of `CSc1ccc(C(=O)/C=C/c2ccc(Cl)cc2Cl)cc1` . 48.9 µM

###

- System: SK-MEL-28 melanoma
- experimental_protocol: NCI tumour cell line growth inhibition, 48 h
Hi, to clarify the labels: rule met covers TGI from 10 µM upward, rule not met covers anything below 10 µM.

Can `CCc1c(C)c2cc(-n3c(-c4ccc(OC)cc4)csc3=N)c(O)c(C)c2oc1=O` be said to have TGI at or above 10 µM? rule not met

Decide: TGI of `O=C1Nc2ccc(Cl)c(I)c2C1=O` >= 10 µM? rule met

Check if TGI >= 10 µM (inclusive). Item: CN1C(=O)C23CCCC2CC1(c1ccccc1)S3 (stereo not given) rule met

# check: TGI of `Cc1c(C(N)=O)sc2nc(C)n(/N=c3\scc(-c4ccccc4)n3Cc3ccccc3)c(=O)c12` is greater than or equal to 10 µM rule met

Exam item: decide whether the reported TGI for `COc1ccc2nc3ccccc3c(NCCCCN(CCCl)CCCl)c2c1` is at least 10 µM. rule not met

In plain terms: is recorded TGI at least 10 µM for `Cc1nn2c(c1C#N)NNc1c-2sc(=N)nnc1=O` ? rule met

Would you say `O=S(O)c1cc(Cl)c(O)c(Cl)c1` shows TGI at minimum 10 µM? rule met

Does the compound CCCCCCCCCCCCOC1C(COCCN2CCCCC2)OC2OC(C)(C)OC21 (stereo not given) have recorded TGI that is 10 µM or more? rule not met

Assess whether reported TGI for COc1ccc([C@H]2CC3C(=O)N(c4ccc(OC)cc4)C(=O)C3c3[nH]c4ccccc4c32)cc1 (stereo not given in full) sits at 10 µM or higher. rule met

###

- Test system: 786-0 renal
- experimental_protocol: NCI tumour cell line growth inhibition, 48 h
measured_attribute: log10 of TGI (log10 of the value in µM)
Plainly stated, the numbers are log10 of TGI given in µM.

Reported log10 of TGI, molecule `O=S(=O)(c1ccccc1)c1ccc(-c2nc(-c3ccc4c(c3)Sc3ccccc3S4)cs2)cc1` : ____ 1.65

I am curious: what log10 of TGI value has been reported for `CCc1c(C)c2cc(-n3c(-c4ccc(OC)cc4)csc3=N)c(O)c(C)c2oc1=O` ? 0.67

// lookup log10 of TGI for COc1ccc([C@H]2CC3C(=O)N(c4ccc(OC)cc4)C(=O)C3c3[nH]c4ccccc4c32)cc1 (stereo not given in full) 1.68

Form field: reported log10 of TGI of CCC(c1ccccc1)c1cc(C(C)(C)C)cc(C(C)(C)C)c1O (stereo not given) 1.46

I have this molecule here, O=C(CCc1ccccc1)CC1OC(=O)C(Cl)=C1Cl (stereo not given) , and I need its recorded log10 of TGI. 1.57

Returns the measured log10 of TGI for the input molecule. Input: `Cc1cc(N2CCOCC2)nc(NCc2cc(Nc3ccnc4cc(Cl)ccc34)ccc2F)n1` 0.53

###

- Tested on: SNB-19 CNS
- experimental_protocol: NCI tumour cell line growth inhibition, 48 h
measured_attribute: GI50

Data request, read-out GI50, for `Cc1cc(N(CCNc2ccnc3cc(Cl)ccc23)Cc2ccc3c(c2)OCO3)nc(N2CCCC2)n1` 2.53 µM

Which GI50 value belongs to `COc1ccc2c(c1)/C(=N/OC(C)=O)c1c-2c(OC)nc2ccccc12` ? > 100 µM

Endpoint output: GI50 of CCN1C(=O)N(CC)C2C1N=C(SC)N2/N=C/C=C/c1ccccc1OC (stereo not drawn) . Value? 0.492 µM

Give the measured GI50 of `CCc1c(C)c2cc(-n3c(-c4ccc(OC)cc4)csc3=N)c(O)c(C)c2oc1=O` . 2.36 µM

State the recorded GI50 for this entry: `COc1cc(-c2ccc[nH]2)[nH]c1/C=C1\N=C(C)C(CC(=O)OCC(C)(C)C)=C1C` 0.468 µM

Look up GI50: `CC(=O)c1c(C)c2cnc(Nc3ccc(N4CCNCC4)cn3)nc2n(C2CCCC2)c1=O` 11.7 µM

Looking for the measured GI50 of `O=C1Cc2cc(CCN3CCNCC3)c(Cl)cc2N1` , can you help? 23.7 µM

Item under review: `Cc1cc(N2CCOCC2)nc(NCc2cc(Nc3ccnc4cc(Cl)ccc34)ccc2F)n1` . Reported GI50? 1.65 µM

Just for reference, PubChem BioAssay (NCI) is where these values come from.
